Kindly supply the reported IC50 (µg/mL), pseudovirus neutralization values for the records listed here.
- target.or.system: HIV-1 Env of isolate MGRM-C-002 (subtype C) (HIV-1)
- test.protocol: cell-based or functional assay
Quick reminder: number only, in µg/mL, skip the unit.

Q: Looking for the measured IC50 (µg/mL), pseudovirus neutralization of PGT-123 (antibody, V domains shown) VH: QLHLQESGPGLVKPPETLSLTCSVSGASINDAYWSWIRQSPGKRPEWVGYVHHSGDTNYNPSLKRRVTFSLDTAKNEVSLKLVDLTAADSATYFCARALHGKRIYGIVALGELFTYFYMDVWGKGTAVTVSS VL: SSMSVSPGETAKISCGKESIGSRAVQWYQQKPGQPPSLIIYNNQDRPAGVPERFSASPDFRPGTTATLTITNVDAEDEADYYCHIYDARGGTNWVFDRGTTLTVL , can you help?
A: 0.01

Q: What do you have for PGT-125 (antibody, V domains shown) VH: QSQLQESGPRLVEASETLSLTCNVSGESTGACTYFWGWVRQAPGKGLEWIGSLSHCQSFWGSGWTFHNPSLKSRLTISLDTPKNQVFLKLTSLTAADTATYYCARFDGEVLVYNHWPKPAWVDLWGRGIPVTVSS VL: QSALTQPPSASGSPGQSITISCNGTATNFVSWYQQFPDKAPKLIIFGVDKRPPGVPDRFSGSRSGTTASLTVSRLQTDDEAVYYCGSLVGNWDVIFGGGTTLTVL ?
A: 0.008

Q: Would you mind doing PGT-127 (antibody, V domains shown) VH: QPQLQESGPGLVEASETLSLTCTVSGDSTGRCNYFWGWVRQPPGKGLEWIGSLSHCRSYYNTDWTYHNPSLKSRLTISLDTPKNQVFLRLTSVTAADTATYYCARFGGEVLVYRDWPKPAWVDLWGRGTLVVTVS VL: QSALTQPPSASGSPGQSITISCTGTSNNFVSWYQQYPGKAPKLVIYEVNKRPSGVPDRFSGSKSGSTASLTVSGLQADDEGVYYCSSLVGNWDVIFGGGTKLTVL as well?
A: 0.057

Q: Also need PGT-126 (antibody, V domains shown) VH: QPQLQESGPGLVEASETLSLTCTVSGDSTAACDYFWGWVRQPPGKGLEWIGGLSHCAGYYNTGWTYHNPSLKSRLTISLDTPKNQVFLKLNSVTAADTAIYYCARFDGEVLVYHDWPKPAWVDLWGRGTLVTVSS VL: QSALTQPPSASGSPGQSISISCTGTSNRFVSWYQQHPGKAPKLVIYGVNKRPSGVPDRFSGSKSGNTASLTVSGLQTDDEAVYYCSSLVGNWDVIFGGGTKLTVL , thanks.
A: 0.011
